Data origin: paper PMC11597446

assay: Rat oral pharmacokinetics; type: in vivo, Male Sprague-Dawley rats; settings: male, Sprague-Dawley, rat, 20 mg/kg; plasma FMN, rats, oral 20 mg FMN/kg, crystalline FMN suspension in 1% PVP-K30, n = 4
readout-type: AUC(0-inf) (ng·h/mL)
Give the quantity in ng·h/mL, number only.

stdin: I would be grateful if you could share the reported AUC(0-inf) for `COc1ccc(-c2coc3cc(O)ccc3c2=O)cc1` .
stdout: 16.4

====

experiment: Rat oral pharmacokinetics; format: in vivo, Male Sprague-Dawley rats; conditions: male, Sprague-Dawley, rat, 20 mg/kg; plasma FMN, rats, oral 20 mg FMN/kg, suspension in 1% PVP-K30, n = 4
readout-type: half-life (min)
Give the quantity in min, number only.

stdin: I would be grateful if you could share the reported half-life for `COc1ccc(-c2coc3cc(O)ccc3c2=O)cc1` .
stdout: 426
